# Fl-geph Binding Intensity [norm.] annotations
system: FL-geph; assay: µSPOT peptide microarray binding assay with full-length geph; details: µSPOT full positional scan of GlyRβ 15-mer DLRSNDFSIVGSLPR, intensity normalised to wild-type sequence (= 1)

Chain	Result units	Fl-geph Binding Intensity [norm.]
DLRSNDFSIVGALPR [GlyRβ_Full_Positional_Scan_221]	norm.	1.04
DLRSNDFSIVGSMPR [GlyRβ_Full_Positional_Scan_258]	norm.	1.08
DLRSNDFSIVQSLPR [GlyRβ_Full_Positional_Scan_220, GlyR β 414-428 variant G424Q]	norm.	0.45
DLRSNDFSIVGSLPH [GlyRβ_Full_Positional_Scan_293]	norm.	1.05
DLRSNDFSIVTSLPR [GlyRβ_Full_Positional_Scan_216, GlyR β 414-428 variant G424T]	norm.	0.47
DLRSNDFSIVGSRPR [GlyRβ_Full_Positional_Scan_252]	norm.	1.07
DLRSNDFSIVGSLPS [GlyRβ_Full_Positional_Scan_295]	norm.	1.3
DLRSNDFSIVGSKPR [GlyRβ_Full_Positional_Scan_254]	norm.	0.68
DLRSNDFSIVGSLPL [GlyRβ_Full_Positional_Scan_284]	norm.	1.05
DLRSNDFSIVGSLKR [GlyRβ_Full_Positional_Scan_274]	norm.	1.01
DLRSNDFSIVGSVPR [GlyRβ_Full_Positional_Scan_246]	norm.	1.06
DLRSNDFSIVGGLPR [GlyRβ_Full_Positional_Scan_222]	norm.	0.99
DLRSNDFSIVGSLPR [GlyRβ_Full_Positional_Scan_235]	norm.	1
DLRSNDFSIVGSLYR [GlyRβ_Full_Positional_Scan_269]	norm.	0.71
DLRSNDFSIVGSLPW [GlyRβ_Full_Positional_Scan_288]	norm.	0.84
DLRSNDFSIVGNLPR [GlyRβ_Full_Positional_Scan_239]	norm.	1.17
DLRSNDFSIVGSLFR [GlyRβ_Full_Positional_Scan_267]	norm.	0.78
DLRSNDFSIVGSLNR [GlyRβ_Full_Positional_Scan_279]	norm.	0.77
DLRSNDFSIVGSLPV [GlyRβ_Full_Positional_Scan_286]	norm.	0.97
DLRSNDFSIVGSAPR [GlyRβ_Full_Positional_Scan_241]	norm.	1.07

###

test system: gephE; assay: µSPOT peptide microarray binding assay with recombinant gephE; details: µSPOT peptide microarray, GlyRβ full positional scan, recombinant gephE; intensity normalised to wild-type sequence DLRSNDFSIVGSLPR (=1)
Param label: returns YES when gephE Binding Intensity [norm.] < 0.9 norm., returns NO otherwise, including exact equality.

Chain	Assigned label
DCRSNDFSIVGSLPR [GlyRβ_Full_Positional_Scan_037]	NO
DGRSNDFSIVGSLPR [GlyRβ_Full_Positional_Scan_022]	NO
DLRSNDGSIVGSLPR [GlyRβ_Full_Positional_Scan_122, GlyR β 414-428 variant F420G]	YES
ILRSNDFSIVGSLPR [GlyRβ_Full_Positional_Scan_003]	NO
DLRSNVFSIVGSLPR [GlyRβ_Full_Positional_Scan_106]	YES
DLRSNDFSIHGSLPR [GlyRβ_Full_Positional_Scan_193, GlyR β 414-428 variant V423H]	YES

###

# Fl-geph Binding Intensity [norm.] annotations
test system: FL-geph; experiment: µSPOT peptide microarray binding assay with full-length geph; settings: µSPOT full positional scan of GlyRβ 15-mer DLRSNDFSIVGSLPR, intensity normalised to wild-type sequence (= 1)

Chain	Fl-geph Binding Intensity [norm.] [norm.]
DLRSNDFSIVGKLPR [GlyRβ_Full_Positional_Scan_234]	0.96
DLRSNDFSIVGSLPK [GlyRβ_Full_Positional_Scan_294]	1.24
DLRSNDFSIVGSLPI [GlyRβ_Full_Positional_Scan_283]	1.05
DLRSNDFSIVGWLPR [GlyRβ_Full_Positional_Scan_228]	0.67
DLRSNDFSIVGSDPR [GlyRβ_Full_Positional_Scan_250]	1.05
DLRSNDFSIVGSPPR [GlyRβ_Full_Positional_Scan_245]	0.96
DLRSNDFSIVGSSPR [GlyRβ_Full_Positional_Scan_255]	1.08
DLRSNDFSIVGSLPN [GlyRβ_Full_Positional_Scan_299]	1.36
DLRSNDFSIVGVLPR [GlyRβ_Full_Positional_Scan_226]	1.01
DLRSNDFSIVMSLPR [GlyRβ_Full_Positional_Scan_218, GlyR β 414-428 variant G424M]	0.33
DLRSNDFSIVGSLER [GlyRβ_Full_Positional_Scan_271]	0.75
DLRSNDFSIVGMLPR [GlyRβ_Full_Positional_Scan_238]	0.88
DLRSNDFSIVGSLPD [GlyRβ_Full_Positional_Scan_290]	1.21
DLRSNDFSIVGSLDR [GlyRβ_Full_Positional_Scan_270]	0.82
DLRSNDFSIVKSLPR [GlyRβ_Full_Positional_Scan_214, GlyR β 414-428 variant G424K]	0.44
DLRSNDFSIVGSLPQ [GlyRβ_Full_Positional_Scan_300]	1.33
DLRSNDFSIVGYLPR [GlyRβ_Full_Positional_Scan_229]	0.59
DLRSNDFSIVGSLPP [GlyRβ_Full_Positional_Scan_285]	1.03
DLRSNDFSIVGCLPR [GlyRβ_Full_Positional_Scan_237]	0.83
DLRSNDFSIVGRLPR [GlyRβ_Full_Positional_Scan_232]	1.06
